Biological target: T1, ULBP2-Fc (R&D Systems) (human, UniProt Q9BZM5 26-217)
T1 construct: not shown: Fc of the bought reagent
T1 sequence (looked up): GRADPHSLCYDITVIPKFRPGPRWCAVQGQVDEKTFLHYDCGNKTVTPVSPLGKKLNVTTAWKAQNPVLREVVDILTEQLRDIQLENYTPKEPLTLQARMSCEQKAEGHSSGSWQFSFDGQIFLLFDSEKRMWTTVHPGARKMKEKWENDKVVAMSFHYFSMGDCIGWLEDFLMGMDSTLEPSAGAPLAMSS
Assay: ELISA, ligand-Fc coated, biotinylated NKG2D titrated
ENDPOINT_NAME: binding result

INSERT INTO results (binder, endpoint_name, experimental_value) VALUES
  ('Y199A mutant NKG2D ectodomain (His-avitag, biotinylated) (receptor, not shown: N-terminal His-avitag) EPHHHHHHGLNDIFEAQKIEWHENSLFNQEVQIPLTESYCGPCPKNWICYKNNCYQFFDESKNWYESQASCMSQNASLLKVYSKEDQDLLKLVKSYHWMGLVHIPTNGSWQWEDGSILSPNLLTIIEMQKGDCALYASSFKGAIENCSTPNTYICMQRTV', 'binding result', 'no binding'),
  ('Y152A mutant NKG2D ectodomain (His-avitag, biotinylated) (receptor, also called Y152A non-natural NKG2D receptor; not shown: N-terminal His-avitag) EPHHHHHHGLNDIFEAQKIEWHENSLFNQEVQIPLTESYCGPCPKNWICYKNNCYQFFDESKNWYESQASCMSQNASLLKVYSKEDQDLLKLVKSAHWMGLVHIPTNGSWQWEDGSILSPNLLTIIEMQKGDCALYASSFKGYIENCSTPNTYICMQRTV', 'binding result', 'no binding'),
  ('double Y152A plus Y199A mutant NKG2D ectodomain (His-avitag, biotinylated) (receptor, not shown: N-terminal His-avitag) EPHHHHHHGLNDIFEAQKIEWHENSLFNQEVQIPLTESYCGPCPKNWICYKNNCYQFFDESKNWYESQASCMSQNASLLKVYSKEDQDLLKLVKSAHWMGLVHIPTNGSWQWEDGSILSPNLLTIIEMQKGDCALYASSFKGAIENCSTPNTYICMQRTV', 'binding result', 'no binding'),
  ('His-avitag natural NKG2D ectodomain, biotinylated (receptor, also called natural form of the ectodomain of NKG2D) EPHHHHHHGLNDIFEAQKIEWHENSLFNQEVQIPLTESYCGPCPKNWICYKNNCYQFFDESKNWYESQASCMSQNASLLKVYSKEDQDLLKLVKSYHWMGLVHIPTNGSWQWEDGSILSPNLLTIIEMQKGDCALYASSFKGYIENCSTPNTYICMQRTV', 'binding result', 'binds');

The values you see were collected from patent US20200239541A1.
